test system: HBV replication in HepG2 2.2.15 cells; assay: Antiviral activity: reduction of extracellular HBV DNA in HepG2 2.2.15 cells; format: cell-based, hepatitis B virus; conditions: Hepatitis B virus, 216 h; HepG2 2.2.15 cells, extracellular HBV DNA by PCR, after 9 days of incubation; read-out: ED50 values (concentration resulting in 50% reduction of HBV DNA in the medium of the cells)
pEC50: −log10 of the molar value.
Measure: pEC50

Looking up Nc1ccn([C@@H]2CS[C@H](CO)O2)c(=O)n1 [3TC, β-L-2′,3′-dideoxy-3′-thiacytidine, reference compound] , I found its pEC50 recorded as 6.70 to 7.00

----------
target: HBV DNA polymerase (Hepatitis B virus genotype D subtype ayw, UniProt P03156); construct: 30 μl of polymerase batch included about 2-4×10^8 purified virus particles (lysed beforehand); virus particles purified through a saccharose gradient and lysed; experiment: Inhibition of endogenous HBV DNA polymerase activity (3H-dCTP incorporation); conditions: nucleoside triphosphates; purified virus particles from patient serum; 0.7 μM dCTP; two-hour incubation at 37° C.; read-out: IC50 (50% inhibition of the HBV DNA polymerase activity)
Sequence (P03156 whole entry): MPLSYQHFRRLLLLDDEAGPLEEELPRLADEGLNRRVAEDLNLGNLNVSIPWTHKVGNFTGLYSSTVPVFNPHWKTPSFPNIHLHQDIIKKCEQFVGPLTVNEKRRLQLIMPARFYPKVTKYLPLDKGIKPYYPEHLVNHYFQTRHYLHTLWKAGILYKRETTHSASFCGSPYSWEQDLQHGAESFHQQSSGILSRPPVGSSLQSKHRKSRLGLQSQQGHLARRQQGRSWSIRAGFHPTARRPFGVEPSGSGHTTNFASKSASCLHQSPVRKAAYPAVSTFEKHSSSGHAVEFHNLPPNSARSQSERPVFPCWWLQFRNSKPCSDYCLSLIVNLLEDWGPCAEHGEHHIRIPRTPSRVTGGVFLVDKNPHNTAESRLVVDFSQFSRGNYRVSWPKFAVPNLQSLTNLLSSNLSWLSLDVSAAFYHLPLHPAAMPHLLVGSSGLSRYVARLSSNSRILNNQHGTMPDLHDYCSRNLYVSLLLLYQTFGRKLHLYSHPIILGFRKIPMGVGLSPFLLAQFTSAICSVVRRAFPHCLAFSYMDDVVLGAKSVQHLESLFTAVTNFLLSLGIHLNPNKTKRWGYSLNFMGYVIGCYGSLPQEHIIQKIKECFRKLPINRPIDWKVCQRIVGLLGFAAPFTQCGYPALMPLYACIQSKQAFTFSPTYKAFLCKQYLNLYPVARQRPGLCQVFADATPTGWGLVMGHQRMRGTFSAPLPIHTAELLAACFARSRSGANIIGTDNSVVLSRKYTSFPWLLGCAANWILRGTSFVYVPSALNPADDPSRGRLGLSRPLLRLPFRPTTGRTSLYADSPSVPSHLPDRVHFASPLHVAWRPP
Label Condition met when IC50 < 6 µM; otherwise Condition not met.

Solved cases (2 shown):
Nc1ccn([C@@H]2CS[C@H](COP(=O)(O)OP(=O)(O)OP(=O)(O)O)O2)c(=O)n1 [Triphosphate of 3TC, reference compound] : Condition met
Cc1cn([C@H]2O[C@@H](COP(=O)(O)OP(=O)(O)OP(=O)(O)O)[C@H](O)[C@H]2O)c(=O)nc1N [Triphosphate of β-L-AraMetC] : Condition not met

Identify whether the compound Cc1cn([C@@H]2C[C@@H](O)[C@H](COP(=O)(O)OP(=O)(O)OP(=O)(O)O)O2)c(=O)nc1N [Triphosphate of β-L-MetCdR] records IC50 below 6 µM.
Condition met

Hi there! Is IC50 for Cc1cn([C@@H]2CC[C@H](COP(=O)(O)OP(=O)(O)OP(=O)(O)O)O2)c(=O)nc1N [Triphosphate of β-L-ddMetCdR] below 6 µM, do you know?
Condition not met

Please check: IC50 for Cc1cn([C@@H]2C=C[C@H](COP(=O)(O)OP(=O)(O)OP(=O)(O)O)O2)c(=O)nc1N [Triphosphate of β-L-ddeMetCdR] , strictly under 6 µM or not?
Condition not met

Consider Cc1cn([C@@H]2C[C@@H](N=[N+]=[N-])[C@H](COP(=O)(O)OP(=O)(O)OP(=O)(O)O)O2)c(=O)nc1N [Triphosphate of β-L-N3MetCdR] . Does its IC50 lie strictly below 6 µM?
Condition met

----------
system: HL-60 cells; experiment: Cytotoxicity: inhibition of proliferation of HL-60 cells; type: cell-based, human; details: RPMI medium, incubated for two days
Entries and their measured Cytotoxicity (CD50), concentration resulting in 50% inhibition of proliferation follow.
Would you mind answering with just the numeric figure?

Cc1cn([C@@H]2C[C@@H](N=[N+]=[N-])[C@H](CO)O2)c(=O)nc1N [β-L-N3MetCdR] : 2000

As a next step, examine the molecule that follows.
The molecule Cc1cn([C@@H]2C=C[C@H](CO)O2)c(=O)nc1N [β-L-ddeMetC] on HL-60 cells: Cytotoxicity (CD50), concentration resulting in 50% inhibition of proliferation was 600
